// data source = BigSolDB 2.1

solubility (mole fraction) for assorted molecules
Condition Details: in acetic acid, 308.15 K
Give your answer as a number; write no unit.

1. O=C(O)CCCC(=O)O
0.276
2. O=C(O)CCCCCCCC(=O)O
0.0761
3. O=C(O)CCCCCC(=O)O
0.14

Noted for O=C(O)CCCCCCC(=O)O : its solubility (mole fraction) reads 0.0264

====

Condition Details: in acetone, 303.15 K
Value Type: solubility (mole fraction)

1) O=C(O)CCCC(=O)O
0.264
2) O=C(O)CCCCCCC(=O)O
0.021
3) O=C(O)CCCCCCCC(=O)O
0.0494

Looking up O=C(O)CCCCCC(=O)O , I found its solubility (mole fraction) recorded as 0.146
